# Test system: LOLSS
# protocol: Greenhouse trial: resistant biotypes following PE application (test method 9)
# Format: in vivo, Lolium species
# conditionNotes: PE; sensitive biotype; g of AS/ha: (A) 90, (B) 1200, (C) 140, (A)+(B)+(C) 90 + 1200 + 140, iodosulfuron 10

# molecule, activity LOLSS sensitive, %
rows = [
    ("CSc1nnc(C(C)(C)C)c(=O)n1N", 70),
    ("COc1nc(C)nc(NC(=O)NS(=O)(=O)c2cc(I)ccc2C(=O)O)n1", 98),
    ("CCCN(CCC)C(=O)SCc1ccccc1 [(B) prosulfocarb, S-(phenylmethyl) dipropylcarbamothioate]", 85),
    ("CC(C)N(C(=O)COc1nnc(C(F)(F)F)s1)c1ccc(F)cc1", 85),
]
